- Tested on: HeLa
- PROCEDURE_TEXT: Phototoxicity against human HeLa cells at 1 uM after 24 hrs followed by halogen light irradiation by MTS assay
- Assay type: functional, cell-based
The source made the active and inactive calls. No cut-off for these calls is given here.
Possible outcomes: active, inactive

{"COMPOUND_STRING": "CC1(C)O[C@H]2[C@@H](O1)[C@@H](c1c3nc(c(-c4ccc([N+](=O)[O-])cc4)c4ccc([nH]4)c([C@H]4O[C@@H]5OC(C)(C)O[C@@H]5[C@H]5OC(C)(C)O[C@H]54)c4nc(c(-c5ccc([N+](=O)[O-])cc5)c5ccc1[nH]5)C=C4)C=C3)O[C@@H]1OC(C)(C)O[C@@H]12", "LABEL": "inactive"}
{"COMPOUND_STRING": "CSc1ccc(-c2c3nc(c([C@H]4O[C@@H]5OC(C)(C)O[C@@H]5[C@H]5OC(C)(C)O[C@H]54)c4ccc([nH]4)c(-c4ccc(SC)cc4)c4nc(c([C@H]5O[C@@H]6OC(C)(C)O[C@@H]6[C@H]6OC(C)(C)O[C@H]65)c5ccc2[nH]5)C=C4)C=C3)cc1", "LABEL": "active"}
{"COMPOUND_STRING": "CC1(C)O[C@H]2[C@@H](O1)[C@@H](C=O)O[C@@H]1OC(C)(C)O[C@@H]12", "LABEL": "inactive"}
{"COMPOUND_STRING": "CC1(C)O[C@H]2[C@@H](O1)[C@@H](c1c3nc(c(-c4ccc(Cl)cc4)c4ccc([nH]4)c([C@H]4O[C@@H]5OC(C)(C)O[C@@H]5[C@H]5OC(C)(C)O[C@H]54)c4nc(c(-c5ccc(Cl)cc5)c5ccc1[nH]5)C=C4)C=C3)O[C@@H]1OC(C)(C)O[C@@H]12", "LABEL": "inactive"}
{"COMPOUND_STRING": "CC1(C)O[C@H]2[C@@H](O1)[C@@H](c1c3nc(c(-c4ccsc4)c4ccc([nH]4)c([C@H]4O[C@@H]5OC(C)(C)O[C@@H]5[C@H]5OC(C)(C)O[C@H]54)c4nc(c(-c5ccsc5)c5ccc1[nH]5)C=C4)C=C3)O[C@@H]1OC(C)(C)O[C@@H]12", "LABEL": "active"}
{"COMPOUND_STRING": "COc1ccc(-c2c3nc(c([C@H]4O[C@@H]5OC(C)(C)O[C@@H]5[C@H]5OC(C)(C)O[C@H]54)c4ccc([nH]4)c(-c4ccc(OC)cc4)c4nc(c([C@H]5O[C@@H]6OC(C)(C)O[C@@H]6[C@H]6OC(C)(C)O[C@H]65)c5ccc2[nH]5)C=C4)C=C3)cc1", "LABEL": "active"}
{"COMPOUND_STRING": "COc1cccc(OC)c1-c1c2nc(c([C@H]3O[C@@H]4OC(C)(C)O[C@@H]4[C@H]4OC(C)(C)O[C@H]43)c3ccc([nH]3)c(-c3c(OC)cccc3OC)c3nc(c([C@H]4O[C@@H]5OC(C)(C)O[C@@H]5[C@H]5OC(C)(C)O[C@H]54)c4ccc1[nH]4)C=C3)C=C2", "LABEL": "inactive"}
{"COMPOUND_STRING": "CC1(C)O[C@H]2[C@@H](O1)[C@@H](c1c3nc(c(-c4c(F)c(F)c(F)c(F)c4F)c4ccc([nH]4)c([C@H]4O[C@@H]5OC(C)(C)O[C@@H]5[C@H]5OC(C)(C)O[C@H]54)c4nc(c(-c5c(F)c(F)c(F)c(F)c5F)c5ccc1[nH]5)C=C4)C=C3)O[C@@H]1OC(C)(C)O[C@@H]12", "LABEL": "inactive"}
{"COMPOUND_STRING": "CC1(C)O[C@H]2[C@@H](O1)[C@@H](c1c3nc(c(-c4ccc(OC(F)(F)F)cc4)c4ccc([nH]4)c([C@H]4O[C@@H]5OC(C)(C)O[C@@H]5[C@H]5OC(C)(C)O[C@H]54)c4nc(c(-c5ccc(OC(F)(F)F)cc5)c5ccc1[nH]5)C=C4)C=C3)O[C@@H]1OC(C)(C)O[C@@H]12", "LABEL": "inactive"}
